# Type: in vivo, human
# CONDITIONS: human, plasma, po, 120 mg/m^2/day, Day 1 Cmax, cystic fibrosis patient, oral erlotinib 120 mg/m^2/day (150 mg), day 1, plasma
PROPERTY MEASURED: Cmax (µg/mL)
One number for each entry, in µg/mL.

Query string: Look up Cmax for this molecule: C#Cc1cccc(Nc2ncnc3cc(OCCOC)c(OCCOC)cc23)c1
Result string: 1.44

====

# Type: in vivo, human
# CONDITIONS: human, plasma, po, 120 mg/m^2/day, Day 1 AUCERL, cystic fibrosis patient, oral erlotinib 120 mg/m^2/day (150 mg), day 1, plasma
PROPERTY MEASURED: AUC
Lab note: write values as number then unit, every time.

Query string: Look up AUC for this compound: C#Cc1cccc(Nc2ncnc3cc(OCCOC)c(OCCOC)cc23)c1 [erlotinib]
Result string: 18800 ng·h/mL
